measurement_description: chemical genetic growth profiling, strain panel (AID 1159580);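 also: tested at 20 µM; growth read once vehicle control cultures reached saturation at 30 °C; lower values mean less growth of the strain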
condition_label: S. cerevisiae deletion strains, growth OD, locus YMR307W, strain GAS1
Screen size: about 5,500 compounds; about 2,000 (36%) were called active. About 18% were inconclusive and are not listed. Rule as the data show it: active = normalized growth mostly below about 0.91 (no sharp cut-off); inconclusive = no clear call, values can overlap the other calls; inactive = mostly above about 0.92. The list shows a part of the results.
Write down one outcome, taken from active, inactive

C=C1C(C)C2C(Cc3ccccc3)NC(=O)C23OC(=O)/C=C/C(O)CCCC(C)C/C=C/C3C1O (stereo unspecified); inactive
NC(=O)C1=CN(C2OC(COP(=O)(O)OP(=O)(O)OC[C@H]3O[C@@H](n4cnc5c(N)ncnc54)C(OP(=O)(O)O)[C@H]3O)C(O)C2O)C=CC1 (stereo partly specified); inactive
CCCC(=O)O[C@]1(C(=O)CO)CCC2[C@@H]3CCC4=CC(=O)CC[C@]4(C)C3[C@@H](O)C[C@@]21C (stereo partly specified); inactive
COc1ccc2c(c1OC)C(=O)OC2[C@H]1c2c(cc3c(c2OC)OCO3)CCN1C (stereo partly specified); inactive
CC[C@H](C)C(=O)O[C@H]1CCC=C2C=C[C@H](C)C(CCC3C[C@@H](O)CC(=O)O3)[C@H]21 (stereo partly specified); inactive
C=CCSCC1Nc2cc(Cl)c(S(N)(=O)=O)cc2S(=O)(=O)N1 (stereo unspecified); inactive
O=C(O)CN1C(=O)c2cccc3cccc(c23)C1=O; inactive
CCCCN1CCCCC1C(=O)Nc1c(C)cccc1C (stereo unspecified); inactive

Any idea what this test logged for `CC[C@H](C)C(=O)O[C@H]1C[C@@H](C)C=C2C=C[C@H](C)[C@H](CC[C@@H]3C[C@@H](O)CC(=O)O3)[C@H]21` ?
inactive

// repeat for `NC[C@@H]1CC[C@@H](N)[C@@H](O[C@H]2[C@H](O)[C@@H](O[C@H]3O[C@H](CO)[C@@H](O)[C@H](N)[C@H]3O)[C@H](N)C[C@@H]2N)O1` and report
inactive

// repeat for `CCC(C)(C)C(=O)O[C@H]1C[C@@H](C)C=C2C=C[C@H](C)[C@H](CC[C@@H]3C[C@@H](O)CC(=O)O3)[C@H]21` and report
active

// repeat for COC(=O)[C@@H]1OC(=O)[C@H]2O[C@@]23[C@@]1(C)CCC1[C@@]2(C)CCC(=O)C(C)(C)C2C[C@@H](OC(C)=O)[C@]13C (stereo partly specified) and report
inactive

// repeat for COc1ccc2c(c1O)OCC1c3cc4c(cc3OC21)OCO4 (stereo unspecified) and report
inactive

// repeat for `CC(=O)c1cnn(-c2ccccc2)c1C` and report
inactive

// repeat for `O=C1OC(c2ccc(O)cc2)(c2ccc(O)cc2)c2ccccc21` and report
inactive

// repeat for `CC(C)[C@@H]1CC[C@@H](C)C[C@H]1O` and report
inactive

// repeat for C=C1C(=O)O[C@@H]2C3O[C@]3(C)CC/C=C(\C)CC[C@@H]12 (stereo partly specified) and report
active

// repeat for `Cc1ccc(Cl)c(Nc2ccccc2C(=O)O)c1Cl` and report
inactive

// repeat for NS(=O)(=O)c1cc2c(cc1Cl)NC(C(Cl)Cl)NS2(=O)=O (stereo unspecified) and report
inactive

// repeat for `C[N+](C)(CCCCCC[N+](C)(C)CCCN1C(=O)c2cccc3cccc(c23)C1=O)CCCN1C(=O)c2cccc3cccc(c23)C1=O` and report
inactive

// repeat for C#CCCCCCCCCCCCC(O)CC(O)CO (stereo unspecified) and report
inactive

// repeat for C=C1C(=O)OC2CC1C(OC(C)=O)C/C(C)=C/CC/C(C)=C/CC[C@]2(C)O (stereo partly specified) and report
inactive

// repeat for `Oc1ccc(Cl)cc1` and report
inactive

// repeat for `NC(N)=NS(=O)(=O)c1ccc(N)cc1` and report
inactive

// repeat for CC1(C)O[C@@H]2CC3C4CCC5=CC(=O)CCC5(C)C4(F)C(O)CC3(C)[C@]2(C(=O)CCl)O1 (stereo partly specified) and report
inactive

// repeat for `N=C1Sc2ccccc2C2=NCCCN12` and report
active

// repeat for `O=C(Cn1ccnc1[N+](=O)[O-])NCCO` and report
inactive

// repeat for CC1(C)OC(=O)C=CC2(C)C1CC(O)C1(C)C2CCC2(C)C(c3ccoc3)OC(=O)C3OC321 (stereo unspecified) and report
inactive

// repeat for C=CCCCCCCCCCCCC(O)CC(O)COC(C)=O (stereo unspecified) (tested in a mixture with another compound) and report
inactive

// repeat for `Oc1ccc(Cl)cc1Cc1cc(Cl)ccc1O` and report
active

// repeat for Oc1ccc2c(c1)OCC1c3cc4c(cc3OC21)OCO4 (stereo unspecified) and report
inactive

// repeat for `CC(C)(C)CC(C)(C)c1ccc(O)c(Cc2ccc(Cl)cc2Cl)c1` and report
inactive

// repeat for CC(C)(C)C1(O)CCN2CC3c4ccccc4CCc4cccc(c43)C2C1 (stereo unspecified) and report
inactive

// repeat for `Cc1c(Cl)cccc1Nc1ccccc1C(=O)O` and report
active

// repeat for `O=c1cc[nH]c(=S)[nH]1` and report
inactive

// repeat for `C[C@@H](CN1CCC(Cc2ccccc2)CC1)[C@@H](O)c1ccc(O)cc1` and report
inactive

// repeat for `CC(=O)OCC[C@H](C)CCC=C(C)C` and report
inactive

All figures here come from PubChem BioAssay AID1159580.
